# reported Ki; entries follow
target: human α4β2 (Homo sapiens, UniProt P17787+P43681); experiment: Competition binding to human α4β2 receptors in membrane preparations; conditions: membranes, [3H]-nicotine competition; Ki by Cheng-Prusoff; read-out: human α4β2 Ki

smiles.input	Ki
CN1CC2CN(c3cncc(Oc4ccccc4Cl)c3)CC(C1)O2	0.084 µM
CN1CC2CN(c3ccc(Cl)nn3)CC(C1)O2	29 µM
COc1ccc(N2CC3CNCC(C2)O3)cn1	0.2 µM
CN1CC2CN(c3cnccc3Cl)CC(C1)O2	0.18 µM
Brc1cncc(N2CC3CNCC(C2)O3)c1	0.0021 µM
Clc1ccc(Oc2cncc(N3CC4CNCC(C3)O4)c2)cc1Cl	0.0035 µM
COc1cccc(N2CC3CN(C)CC(C2)O3)c1	1.6 µM
FC(F)Oc1cc(N2CC3CNCC(C2)O3)cnc1Cl	0.00016 µM
N#Cc1ccncc1N1CC2CNCC(C1)O2	0.86 µM
CN1CC2CN(c3ccc(Cl)nc3)CC(C1)O2	0.12 µM
CN1CC2CN(c3cc(F)cc(F)c3)CC(C1)O2	0.086 µM
c1cnc(N2CC3CNCC(C2)O3)cn1	0.037 µM
c1ncc(N2CC3CNCC(C2)O3)cc1C1CC1	0.002 µM
CN(C)c1ccc(N2CC3CNCC(C2)O3)cn1	1.2 µM
COc1cc(N2CC3CNCC(C2)O3)cnc1Cl	0.0004 µM
c1ccc(N2CC3CNCC(C2)O3)nc1	0.1 µM
c1cc2cc(N3CC4CNCC(C3)O4)cnc2o1	0.048 µM
FCCCOc1cc(N2CC3CNCC(C2)O3)cnc1Cl	0.00038 µM
[O-][n+]1cc(F)cc(N2CC3CNCC(C2)O3)c1	0.59 µM
CC(C)Oc1cncc(N2CC3CNCC(C2)O3)c1	0.0009 µM
